Known Percent Effect of a selection of compounds
# EXPERIMENTAL TARGET: Proteasome subunit beta (Trypanosoma cruzi) (UniProt O96673)
# Sequence (O96673 as listed by the source): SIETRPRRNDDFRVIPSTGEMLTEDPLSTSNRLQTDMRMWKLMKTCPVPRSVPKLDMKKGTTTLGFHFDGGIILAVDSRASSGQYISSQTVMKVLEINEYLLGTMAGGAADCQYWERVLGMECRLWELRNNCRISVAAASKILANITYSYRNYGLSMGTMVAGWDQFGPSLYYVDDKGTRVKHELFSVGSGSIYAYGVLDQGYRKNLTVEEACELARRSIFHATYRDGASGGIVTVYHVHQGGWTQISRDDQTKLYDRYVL
# ASSAY NOTES: Trypanosoma cruzi proteasome chymotrypsin-like activity (TcProtChymo) assay. Note: in the data most compounds retested in dose-response had high values.
# Assay type: functional
# Design: scale not given: direction of the effect not stated beside the values
# SETUP CONDITIONS: 9.37 µM
Give the quantity in %, number only.

| COMPOUND | QUANTITY MEASURED | RESULT VALUE |
| --- | --- | --- |
| CC(c1ccco1)N(C)Cc1nc2c(cnn2C)c(=O)[nH]1 (centres undefined) | Percent Effect | 15.1 |

Q) State measured Percent Effect of the compound O=C(CCc1nc2cccnc2[nH]1)Nc1cccnc1 with Proteasome subunit beta (Trypanosoma cruzi) (UniProt O96673).
A) 14.1

Q) State measured Percent Effect of the compound c1ccc(-c2noc(CN3CCc4cncnc4C3)n2)nc1 with Proteasome subunit beta (Trypanosoma cruzi) (UniProt O96673).
A) 9.02

Q) State measured Percent Effect of the compound COc1ccc(OC)c(CNCCc2cc(F)cc3c2OCOC3)c1 with Proteasome subunit beta (Trypanosoma cruzi) (UniProt O96673).
A) 7.19

Q) State measured Percent Effect of the compound Cc1ccc(CCC(=O)N(C)CCN2CCOCC2)c(C)c1 with Proteasome subunit beta (Trypanosoma cruzi) (UniProt O96673).
A) 17

Q) State measured Percent Effect of the compound Cc1nc(C)c(C(=O)NCCNC(=O)Cc2cccc(F)c2)s1 with Proteasome subunit beta (Trypanosoma cruzi) (UniProt O96673).
A) 17.8

Q) State measured Percent Effect of the compound CCC(O)CN1CCN(C(=O)c2cccn2Cc2cccs2)CC1 (centres undefined) with Proteasome subunit beta (Trypanosoma cruzi) (UniProt O96673).
A) -3.03

Q) State measured Percent Effect of the compound CN(CCOc1cccc(CN)c1)C1CCOCC1 with Proteasome subunit beta (Trypanosoma cruzi) (UniProt O96673).
A) 7.41

Q) State measured Percent Effect of the compound CCn1cnnc1C1CCN(C(=O)c2cnc3ccccc3n2)CC1 with Proteasome subunit beta (Trypanosoma cruzi) (UniProt O96673).
A) 13.7

Q) State measured Percent Effect of the compound CN1CCN(C(=O)CC2CCN(CCc3ccccn3)CC2)CC1 with Proteasome subunit beta (Trypanosoma cruzi) (UniProt O96673).
A) 3.48

Q) State measured Percent Effect of the compound Cc1ccc(CC(=O)N2CCOC(c3nc(C(C)(C)C)n[nH]3)C2)cn1 (centres undefined) with Proteasome subunit beta (Trypanosoma cruzi) (UniProt O96673).
A) 7.72

Q) State measured Percent Effect of the compound Cc1cccc(N2CC[C@@H]3CN(C(=O)c4ccco4)CCO[C@@H]3C2)n1 with Proteasome subunit beta (Trypanosoma cruzi) (UniProt O96673).
A) 9.78

Q) State measured Percent Effect of the compound O=C(c1ccsc1)N1CCc2c(CNc3ncccn3)n[nH]c2C1 with Proteasome subunit beta (Trypanosoma cruzi) (UniProt O96673).
A) 1.88

Q) State measured Percent Effect of the compound O=C(c1cccnc1-n1cncn1)N1CCc2ccccc2C1 with Proteasome subunit beta (Trypanosoma cruzi) (UniProt O96673).
A) 8.1

Q) State measured Percent Effect of the compound CCCc1nc(C)cc(N2CCC3(CCC(=O)N(CCOC)C3)CC2)n1 with Proteasome subunit beta (Trypanosoma cruzi) (UniProt O96673).
A) 10.9

====

# EXPERIMENTAL TARGET: Chromo domain-containing protein 1 (Saccharomyces cerevisiae (strain ATCC 204508 / S288c) (Baker's yeast)) (UniProt P32657)
# Sequence (P32657 whole entry, the tested form may be a part): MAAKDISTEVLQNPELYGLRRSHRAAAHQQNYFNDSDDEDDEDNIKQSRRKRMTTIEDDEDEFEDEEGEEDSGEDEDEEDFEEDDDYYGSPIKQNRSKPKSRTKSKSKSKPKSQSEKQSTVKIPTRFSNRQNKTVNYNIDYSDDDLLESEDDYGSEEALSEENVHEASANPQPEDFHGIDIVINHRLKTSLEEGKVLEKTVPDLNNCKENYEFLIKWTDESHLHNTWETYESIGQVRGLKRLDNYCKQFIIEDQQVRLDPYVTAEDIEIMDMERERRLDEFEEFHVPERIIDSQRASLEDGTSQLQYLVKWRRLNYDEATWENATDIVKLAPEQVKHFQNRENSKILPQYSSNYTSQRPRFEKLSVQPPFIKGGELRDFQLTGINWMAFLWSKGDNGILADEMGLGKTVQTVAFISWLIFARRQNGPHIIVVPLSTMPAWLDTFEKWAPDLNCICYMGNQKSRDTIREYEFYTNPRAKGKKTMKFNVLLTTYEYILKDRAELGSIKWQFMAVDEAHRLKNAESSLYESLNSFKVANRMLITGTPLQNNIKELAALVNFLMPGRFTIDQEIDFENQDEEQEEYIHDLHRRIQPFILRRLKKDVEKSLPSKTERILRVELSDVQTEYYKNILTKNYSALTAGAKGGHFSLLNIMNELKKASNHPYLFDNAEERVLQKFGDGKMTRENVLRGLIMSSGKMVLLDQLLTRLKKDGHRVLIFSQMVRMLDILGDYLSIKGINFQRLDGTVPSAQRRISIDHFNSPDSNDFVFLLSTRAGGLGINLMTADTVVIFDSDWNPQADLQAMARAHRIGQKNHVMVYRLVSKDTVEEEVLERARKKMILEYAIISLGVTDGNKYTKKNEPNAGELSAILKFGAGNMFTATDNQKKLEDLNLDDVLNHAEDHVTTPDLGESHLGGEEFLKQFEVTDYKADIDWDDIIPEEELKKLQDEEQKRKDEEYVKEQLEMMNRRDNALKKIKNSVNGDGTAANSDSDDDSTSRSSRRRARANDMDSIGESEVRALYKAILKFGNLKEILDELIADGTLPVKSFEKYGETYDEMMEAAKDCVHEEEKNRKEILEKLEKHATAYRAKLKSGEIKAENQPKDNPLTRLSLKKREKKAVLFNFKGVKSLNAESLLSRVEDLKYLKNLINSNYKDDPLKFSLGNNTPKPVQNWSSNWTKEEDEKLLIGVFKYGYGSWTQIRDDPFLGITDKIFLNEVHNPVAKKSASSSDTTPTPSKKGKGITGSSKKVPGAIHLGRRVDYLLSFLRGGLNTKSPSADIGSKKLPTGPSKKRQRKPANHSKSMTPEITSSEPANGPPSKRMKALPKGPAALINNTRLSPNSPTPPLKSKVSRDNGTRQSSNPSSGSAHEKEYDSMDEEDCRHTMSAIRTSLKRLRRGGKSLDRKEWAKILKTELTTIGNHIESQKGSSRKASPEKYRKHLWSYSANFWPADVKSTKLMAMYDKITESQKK
# ASSAY NOTES: ScCHD-1 Enzyme Inhibition Assay; note: in the data most compounds retested in dose-response had high values
# Type: functional
# Set-up: scale not given: direction of the effect not stated beside the values
# SETUP CONDITIONS: 30 µM
QUANTITY MEASURED: Percent Effect (%)
Give the quantity in %, number only.

| COMPOUND | Percent Effect / % |
| --- | --- |
| CCc1ncc2c(n1)CN(Cc1nc(C)c(C)o1)CC2 | -5.18 |
| Cn1ncc2c1C(COCC1CC1)CN(Cc1ccoc1)C2 (centres undefined) | 2.77 |
| Cc1cnn(Cc2cc(F)ccc2F)c1NC(=O)NC1CC1 | -4.35 |
| COC(=O)c1ccoc1COC(=O)CCc1ccc(OC)c(OC)c1 | 1.64 |

Q) Supply recorded Percent Effect for Cc1noc(C)c1C1CCCN1C(=O)CN1CC2(CCNCC2)OC1=O (centres undefined) here.
A) -4.34

Q) Supply recorded Percent Effect for NC(=O)Nc1cccc(Oc2ccccn2)c1 here.
A) -0.275

====

# EXPERIMENTAL TARGET: Arginase-2, mitochondrial (Homo sapiens) (UniProt P78540)
# Sequence (whole entry): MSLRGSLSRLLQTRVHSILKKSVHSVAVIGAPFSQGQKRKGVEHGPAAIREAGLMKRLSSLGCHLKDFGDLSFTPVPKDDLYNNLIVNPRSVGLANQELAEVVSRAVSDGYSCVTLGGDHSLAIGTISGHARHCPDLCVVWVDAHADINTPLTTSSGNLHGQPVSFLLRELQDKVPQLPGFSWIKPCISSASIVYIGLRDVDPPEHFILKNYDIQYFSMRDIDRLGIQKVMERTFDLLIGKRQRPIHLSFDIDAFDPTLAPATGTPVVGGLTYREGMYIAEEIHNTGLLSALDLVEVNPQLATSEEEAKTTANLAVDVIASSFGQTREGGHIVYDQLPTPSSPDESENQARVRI
# ASSAY NOTES: in vitro enzyme assay to detect the production of urea directly proportional to the activity of Arginase II; note: in the data most compounds retested in dose-response had high values
# Type: functional
# Design: scale not given: direction of the effect not stated beside the values
# SETUP CONDITIONS: 33.3 µM
Known Percent Effect of a selection of molecules
Give the quantity in %, number only.

| MOLECULE | QUANTITY MEASURED | READOUT UNIT | RESULT VALUE |
| --- | --- | --- | --- |
| CN1CCOC(CNCc2cccc(OCc3ccccn3)c2)C1 (stereo unspecified) | Percent Effect | % | -1.9 |
| COc1ccc(CS(=O)(=O)CC(=O)NCc2ccccc2F)cc1F | Percent Effect | % | 8.28 |
| COCCNS(=O)(=O)c1ccc2c(c1)CCN(C(=O)c1cncn1C)C2 | Percent Effect | % | 6.62 |
| CN(C)C(=O)N1CCc2c(nnn2C)C1COCc1ccccc1 (stereo unspecified) | Percent Effect | % | -42.1 |
| c1cncc(OCc2nnn3c2CN(Cc2ccsc2)CCC3)c1 | Percent Effect | % | -48.2 |
| CN(Cc1cccnc1)C1CC2(CCN(c3ccccn3)CC2)C1 | Percent Effect | % | -1.17 |

Q) Supply recorded Percent Effect for CC(=O)NCC(=O)N1C[C@H](OCc2cccnc2)[C@H]2COC[C@H]21 here.
A) 2.5

Q) Supply recorded Percent Effect for CCN(Cc1ccc2c(c1)OCO2)C(=O)c1ccc(C)[nH]c1=O here.
A) -1.92

Q) Supply recorded Percent Effect for CC(C)c1n[nH]c(C(=O)Nc2ccncc2)c1Br here.
A) 4.18

Q) Supply recorded Percent Effect for COCCC(=O)N1CC[C@@H]2O[C@@H](C)C[C@H]2C1 here.
A) -3.96

Q) Supply recorded Percent Effect for O=C(NCCN1CCNCC1)c1c(O)c2ccccc2[nH]c1=O here.
A) -14.3

====

# EXPERIMENTAL TARGET: AMP-activated protein kinase, AMPK (Homo sapiens) (UniProt P54646+O43741+P54619+Q9UGJ0+Q9Y478+Q13131+Q9UGI9)
# ASSAY NOTES: AMP-dependent Kinase enzyme assay. An in vitro enzyme assay that detects ADP turnover that is directly proportional to AMPK activity. This uses naive AMPK that is activated during the assay with MK-8722
# Format: functional
# Parameters: scale not given: direction of the effect not stated beside the values
# SETUP CONDITIONS: 30 µM
QUANTITY MEASURED: Percent Effect
A complete answer gives the number followed by the unit.

Q) Supply recorded Percent Effect for CCOc1cccc(C(=O)N2CCN(c3nccc(OC)n3)CC2)c1 here.
A) 10.4%

Q) Supply recorded Percent Effect for CCN1CCN(C2CCN(Cc3nnc(C(C)(C)C)o3)CC2)C1=O here.
A) 7.53%

Q) Supply recorded Percent Effect for O=C(NC1CCS(=O)(=O)C1)N1CCN(c2cnccn2)CC1 (stereo unspecified) here.
A) -10.3%

Q) Supply recorded Percent Effect for Cc1ccsc1-c1nnc(C2CCN(Cc3ccc(F)cc3)CC2)o1 here.
A) 14.3%

====

# EXPERIMENTAL TARGET: Ubiquitin-activating enzyme e1, putative (Leishmania donovani (strain BPK282A1)) (UniProt E9BSI1)
# Sequence (E9BSI1 as listed by the source): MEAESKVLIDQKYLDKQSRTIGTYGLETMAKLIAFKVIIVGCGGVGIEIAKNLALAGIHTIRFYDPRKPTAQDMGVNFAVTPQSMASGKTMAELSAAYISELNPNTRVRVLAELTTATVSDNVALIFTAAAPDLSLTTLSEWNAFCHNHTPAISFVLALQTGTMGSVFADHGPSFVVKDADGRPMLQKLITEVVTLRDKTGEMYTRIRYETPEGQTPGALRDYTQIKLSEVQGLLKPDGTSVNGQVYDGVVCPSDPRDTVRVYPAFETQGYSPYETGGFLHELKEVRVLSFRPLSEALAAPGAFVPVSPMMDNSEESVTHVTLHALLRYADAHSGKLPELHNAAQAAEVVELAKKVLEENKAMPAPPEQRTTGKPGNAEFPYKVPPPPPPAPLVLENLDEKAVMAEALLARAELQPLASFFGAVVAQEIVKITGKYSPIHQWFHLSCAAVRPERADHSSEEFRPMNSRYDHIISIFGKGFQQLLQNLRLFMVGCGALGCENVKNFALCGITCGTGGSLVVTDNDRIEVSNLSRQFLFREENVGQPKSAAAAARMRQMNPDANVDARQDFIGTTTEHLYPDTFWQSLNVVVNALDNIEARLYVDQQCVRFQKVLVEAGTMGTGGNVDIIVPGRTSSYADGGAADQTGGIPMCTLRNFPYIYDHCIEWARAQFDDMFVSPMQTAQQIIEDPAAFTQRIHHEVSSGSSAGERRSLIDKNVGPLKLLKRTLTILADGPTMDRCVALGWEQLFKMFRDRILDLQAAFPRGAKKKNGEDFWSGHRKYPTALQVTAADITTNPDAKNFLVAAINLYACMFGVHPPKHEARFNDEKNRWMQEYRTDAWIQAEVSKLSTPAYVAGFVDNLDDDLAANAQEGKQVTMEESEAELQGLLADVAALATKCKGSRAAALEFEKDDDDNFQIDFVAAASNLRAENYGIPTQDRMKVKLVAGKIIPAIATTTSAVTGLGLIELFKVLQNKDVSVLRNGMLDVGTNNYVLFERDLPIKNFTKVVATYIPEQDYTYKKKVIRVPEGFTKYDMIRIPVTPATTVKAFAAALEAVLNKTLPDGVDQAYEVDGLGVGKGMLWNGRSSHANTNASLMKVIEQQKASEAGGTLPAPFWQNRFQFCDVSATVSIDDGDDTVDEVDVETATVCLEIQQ
# ASSAY NOTES: Leishmania donovani Ubiquitin Activating Enzyme (LdE1)
# Type: functional
# Set-up: scale not given: direction of the effect not stated beside the values
# SETUP CONDITIONS: 30 µM
Results with a measured potency or affinity are listed apart.
Known Percent Effect of a selection of molecules
Give the quantity in %, number only.

| MOLECULE | Percent Effect [%] |
| --- | --- |
| O=C(CN1CCOC(Cn2cccn2)C1)NCCc1ccc(F)cc1 (configuration not stated) | 2.7 |

Q) Supply recorded Percent Effect for COc1cccc(N2CCN(C(=O)C(O)c3cccc(Cl)c3)CC2=O)c1 (configuration not stated) here.
A) 10.8

Q) Supply recorded Percent Effect for CN(CCc1ccccn1)S(=O)(=O)N1CCCC1c1ccco1 (configuration not stated) here.
A) 16.2

Q) Supply recorded Percent Effect for COCCN1CCN(CCS(=O)(=O)C(F)(F)F)CC1C (configuration not stated) here.
A) 8.11

Q) Supply recorded Percent Effect for CS(=O)(=O)N1CCOCC2(CCN(C(=O)c3cccnc3)CC2)C1 here.
A) 2.74

Q) Supply recorded Percent Effect for CCCC(=O)NCc1cc(Br)c(OC)c(OC)c1 here.
A) 8

Q) Supply recorded Percent Effect for Cc1nc(N2CCN(C(=O)c3ccccc3)CC2)c2c(n1)c(C)nn2C here.
A) 12

Q) Supply recorded Percent Effect for Cc1cnn(C2CCCN(C(=O)c3ccc(N(C)C)nn3)C2)c1 (configuration not stated) here.
A) 15.6

Q) Supply recorded Percent Effect for Fc1ccc2c(c1)C(NCc1nnc3n1CCCCC3)CCCO2 (configuration not stated) here.
A) 8.11

Q) Supply recorded Percent Effect for O=C(NS(=O)(=O)c1ccccc1Cl)c1cccc2c1OCCO2 here.
A) 5.48

Q) Supply recorded Percent Effect for CN1CCN(CCCNC(=O)c2cc(Cl)c3c(c2)OCO3)CC1 here.
A) 9.72

Q) Supply recorded Percent Effect for CCN1CCN(S(=O)(=O)c2ncn(C)c2Cl)CC1 here.
A) 6.94
